Tested on: Vaccinia virus
method-notes: Antiviral activity against Vaccinia virus infected in human HELF cells assessed as reduction in virus-induced cytopathogenicity incubated for 7 days by microscopic analysis
Assay type: functional, organism-based
reported-conditions: Orthopoxvirus vaccinia, 168 h
pEC50: −log10 of the molar value.
Please respond with reported pEC50 for every item in the list.

Qu. Give the reported pEC50 for this compound. O=c1[nH]c(=O)n([C@H]2C[C@H](O)[C@@H](CO)O2)cc1/C=C/Br [BRIVUDINE]
Ans. 4.07

Qu. Provide pEC50 value for the following compound: CCCCc1cn(C/C=C2\OC(=O)C(OCc3ccccc3)=C2OCc2ccccc2)nn1
Ans. < 4.00

Qu. Please supply the value of reported pEC50 for the item Nc1nc2c(ncn2COCCO)c(=O)[nH]1 [ACYCLOVIR]
Ans. < 3.60

Qu. Give recorded pEC50. Nc1nc(O)c2ncn(COC(CO)CO)c2n1 [GANCICLOVIR]
Ans. < 4.00
